Cited source for all entries: PubChem BioAssay AID449750

ASSAY NOTES: non-covalent RecA intein splicing inhibitors, dose response, biochemical, cell-free, fluorescence, secondary screen (AID 449750)
Activity calls are given as the source filed them. The rule behind the calls is not given here.
OBSERVATION TYPE: AC50

- COMPOUND: "Cc1ccccc1N(Cc1cc(=O)[nH]c2ccccc12)C(=O)CCl"
  ENDPOINT VALUE: "8.32 µM"
- COMPOUND: "CC(=O)Oc1c(/C=C(\\C#N)C(N)=O)[nH]c2ccccc12"
  ENDPOINT VALUE: "> 38 µM (inactive)"
- COMPOUND: "O=C(CCl)c1cc2c3c(c1)CC(=O)N3CCC2"
  ENDPOINT VALUE: "> 38 µM (inactive)"
- COMPOUND: "COC(=O)C(C#N)C(c1cccnc1)c1c(C)[nH][nH]c1=O (stereo not drawn)"
  ENDPOINT VALUE: "> 38 µM (inactive)"
- COMPOUND: "O=C(CCCN1C(=O)/C(=C\\c2cccs2)SC1=S)Nc1ccc(O)cc1"
  ENDPOINT VALUE: "> 38 µM (inactive)"
- COMPOUND: "O=C1c2ccccc2-c2c1nc1c([n+]2[O-])CCCC1"
  ENDPOINT VALUE: "31.3 µM"

Prompt: Any idea what AC50 was measured for Cc1[nH][nH]c(=O)c1C(c1cc([N+](=O)[O-])ccc1O)c1c(C)[nH][nH]c1=O ?
Completion: 14.6 µM

Prompt: What does the record list as AC50 for C(=N\Nc1nncc2ccccc12)/c1ccccn1 ?
Completion: 19.8 µM

Prompt: Given COc1ccc(/C=C2/C(=O)N(c3ccccc3)N=C2C)c(OC)c1 , state its recorded AC50.
Completion: 18.5 µM

Prompt: Quick one: AC50 of O=C(Nc1cccc(F)c1)N1CCC(c2ccccc2)CC1 ?
Completion: > 38 µM (inactive)

----------
ASSAY NOTES: non-covalent RecA intein splicing inhibitors, dose response, biochemical, cell-free, fluorescence, secondary screen (AID 449750)
The source made the active and inactive calls. How the calls were made is not given here.
Can you answer with just one of these options? active, inactive

- COMPOUND: "Cc1ccc(S(=O)(=O)/N=C2/C=C(C3C(=O)CC(C)(C)CC3=O)C(=O)c3ccccc32)cc1"
  QUALITATIVE LABEL: "inactive"
- COMPOUND: "O=C(O)C1Nc2c(O)cc(Cl)c([N+](=O)[O-])c2C2C=CCC12 (configuration not stated)"
  QUALITATIVE LABEL: "active"

Prompt: For Cc1onc(-c2c(Cl)cccc2Cl)c1C(=O)N1C(C)CCCC1C (configuration not stated) , which call appears in the assay record?
Completion: inactive

Prompt: Recorded test call requested for Cc1[nH][nH]c(=O)c1C(c1cc2c(cc1Br)OCO2)c1c(C)[nH][nH]c1=O
Completion: active

Prompt: Could you kindly confirm the outcome this assay logged for Cc1c(/C=N/Nc2nc3ccccc3[nH]2)c2ccccc2n1C ?
Completion: active

Prompt: # outcome recorded in this test, key = Cc1cc(=O)n(-c2ccc(O)cc2)[nH]1
Completion: active

Prompt: Write down the call the test reported for this compound. Item: O=C(CCl)Nc1ccccc1C(=O)Nc1ccc2c(c1)OCO2
Completion: active

----------
ASSAY NOTES: non-covalent RecA intein splicing inhibitors, dose response, biochemical, cell-free, fluorescence, secondary screen (AID 449750)
Activity calls are given as the source filed them. No rule for the calls is given here.
Pick one and only one: 1 for active, -1 for inactive

Illustrative cases are given below, each with its answer.
- COMPOUND: "C#CC(=O)N(c1cc(OC)ccc1OC)C(C(=O)NC1CCCC1)c1cccs1 (stereo not drawn)"
  QUALITATIVE LABEL: 1
- COMPOUND: "Cc1ccc(NC(=O)c2cc(NC(=O)/C=C\\C(=O)O)ccc2N2CCCCC2)cc1"
  QUALITATIVE LABEL: 1
- COMPOUND: "Cc1ccc(C(C[N+](=O)[O-])c2c(C)[nH]n(-c3ccccc3)c2=O)cc1 (stereo not drawn)"
  QUALITATIVE LABEL: 1
- COMPOUND: "Cc1ccc2c(c1)c1c(n2CC(O)CN2CCCCCC2)CCCC1 (stereo not drawn)"
  QUALITATIVE LABEL: -1
- COMPOUND: "Cc1cc(C(=O)CN2C(=O)c3ccccc3C2=O)c(C)n1C1CC1"
  QUALITATIVE LABEL: -1

Prompt: // return assay outcome for [O-]C1=N/[N+](=C/c2ccc(Cl)c(Cl)c2)CC1
Completion: -1

Prompt: # fetch the recorded call for CC1=NN(c2ccc(S(=O)(=O)O)cc2Cl)C(=O)C1 here
Completion: 1

Prompt: Hello, I am checking results. What call was entered for O=C(CCl)N(C/C=C/c1ccccc1)c1ccc2c(c1)OCCO2 ?
Completion: 1

Prompt: Test call for this compound, please: Cc1cc(C(=O)CCl)c(C)n1CC1COc2ccccc2O1 (stereo not drawn)
Completion: 1

Prompt: What outcome does the record of this test show for N=C(N)SCc1cn(-c2ccccc2)nc1-c1ccc(Br)cc1 ?
Completion: 1

Prompt: Each compound tested received a call. Report the one for CCSc1c([N+](=O)[O-])c(=O)n(-c2ccccc2)c2ccccc12 .
Completion: -1

Prompt: Record request — test call for CCOC(=O)c1c(CC(C)C)csc1NC(=O)CCl
Completion: 1

Prompt: How did this test come out for Nc1ccc(N)c(C(=O)O)c1 ?
Completion: 1

Prompt: Please share the test call associated with Cc1c(C)n(O)c2ccc3nonc3c12 .
Completion: 1

Prompt: Recorded test outcome, item Oc1cc(O)c2c(c1)O[C@H](c1ccc(O)c(O)c1)[C@@H](O)C2
Completion: -1

Prompt: Per the records of this test, what outcome belongs to CCOC(=O)/C(C#N)=C\c1ccc(O)c(OC)c1 ?
Completion: -1

Prompt: Outcome? ONc1cccnc1-n1nc(C(F)(F)F)cc1C(F)(F)F
Completion: -1

Prompt: Can you look up the reported call for C=CCn1c(N)c(C(=O)Nc2cccc(C)c2)c2nc3ccccc3nc21 for me?
Completion: 1

----------
ASSAY NOTES: non-covalent RecA intein splicing inhibitors, dose response, biochemical, cell-free, fluorescence, secondary screen (AID 449750)
Activity calls are given as the source filed them. No rule for the calls is given here.
Pick one and only one: active, inactive

A selection of reference data follows.
- COMPOUND: "CS(=O)(=O)c1ncc(Cl)c(C(=O)Nc2ccc(N3CCOCC3)cc2)n1"
  QUALITATIVE LABEL: "inactive"
- COMPOUND: "CCCc1nn(C)c2c1C(c1ccncc1)C(C#N)=C(N)O2 (configuration not stated)"
  QUALITATIVE LABEL: "inactive"
- COMPOUND: "Nc1cc(N)c(OCC(F)(F)F)cc1OCC(F)(F)F"
  QUALITATIVE LABEL: "active"
- COMPOUND: "Cn1nc(C(C)(C)C)cc1C(=O)Sc1cccc(Br)c1"
  QUALITATIVE LABEL: "inactive"
- COMPOUND: "Cc1[nH]n(-c2ccccc2)c(=O)c1/C=C1\\C=NN=C1c1ccccc1"
  QUALITATIVE LABEL: "active"

Please turn your attention to the following entry.
Prompt: For CC1=C(C)/C(=N\OC(=O)/C=C/c2ccccc2)C=CC1=O , which call appears in the assay record?
Completion: inactive

----------
ASSAY NOTES: non-covalent RecA intein splicing inhibitors, dose response, biochemical, cell-free, fluorescence, secondary screen (AID 449750)
Calls of active or inactive are those of the source. No rule for the calls is given here.
A correct response names exactly one class from yes (1) = active, no (0) = inactive

Observe how each entry below is paired with its result.
- COMPOUND: "CC(=O)Nc1cccc(NC(=O)CSc2ncc(C(=O)Nc3ccccc3)c(=O)n2C)c1"
  QUALITATIVE LABEL: "no (0)"
- COMPOUND: "CCN(C(=O)CSc1ncccc1C(=O)Oc1cccc([N+](=O)[O-])c1)c1cccc(C)c1"
  QUALITATIVE LABEL: "no (0)"
- COMPOUND: "CC(=O)NC1C(=O)N(CCN2CCOCC2)c2ccc(Br)cc21 (configuration not stated)"
  QUALITATIVE LABEL: "yes (1)"
- COMPOUND: "Cc1cc(-c2ccccc2)nc2cc(C(=O)N(Cc3ccccc3)Cc3ccccc3)nn12"
  QUALITATIVE LABEL: "yes (1)"
- COMPOUND: "Nc1ccc2nc(Cc3ccccc3)[nH]c2c1"
  QUALITATIVE LABEL: "no (0)"

// next entry
Prompt: Given Nc1nn2c(-c3ccccc3)cc(=O)[nH]c2c1N=Nc1ccc(O)cc1 , state the outcome it received in this test.
Completion: no (0)

----------
ASSAY NOTES: non-covalent RecA intein splicing inhibitors, dose response, biochemical, cell-free, fluorescence, secondary screen (AID 449750)
Active and inactive are the calls of the source. No rule for the calls is given here.
Overview of reported AC50 across a group of compounds:

Study these solved cases before continuing.
- COMPOUND: "CCOC(=O)C1=C(c2ccccc2)O/C(=C(/C#N)C(F)(F)F)S1"
  OBSERVATION TYPE: "AC50"
  ENDPOINT VALUE: "> 38 µM (inactive)"
- COMPOUND: "C/C(=C/CCC(C)[C@H]1CC[C@@]2(C)C3=C(CC[C@]12C)[C@@]1(C)CCC(=O)C(C)(C)[C@@H]1CC3)C(=O)O (stereo partly specified)"
  OBSERVATION TYPE: "AC50"
  ENDPOINT VALUE: "10.7 µM"
- COMPOUND: "S=C(Nc1ccc2nsnc2c1)N1CCCCCC1"
  OBSERVATION TYPE: "AC50"
  ENDPOINT VALUE: "9.37 µM"

Prompt: // returns reported AC50 for input CC(C)c1[nH]nc2c1C(c1ccco1)C(C#N)=C(N)O2 (stereo unspecified)
Completion: > 38 µM (inactive)

Prompt: Query (compound): Clc1ncnc2scc(C3COc4ccccc4O3)c12 (stereo unspecified) ; field requested: AC50
Completion: 7.28 µM
